Test system: Enterococcus faecalis
EXPERIMENT_DESCRIPTION: Percentage of specific activity relative to untreated control at a concentration allowing 80% growth.
Type: functional
QUANTITY_KIND: AG80 (%)
Answers are plain numbers, in %.

Example cases with answers are listed next.
Quick check: AG80 of O=C(Nc1ccc(Cl)c(Cl)c1)c1cccc(O)c1O ? 48

Could you tell me which AG80 is on file for Cc1cc(C(C#N)c2ccc(Cl)cc2)c(Cl)cc1NC(=O)c1cc(C(F)(F)F)ccc1O (centres undefined) ? 95

Which measured AG80 value corresponds to Cc1cc(C(C#N)c2ccc(Cl)cc2)c(Cl)cc1NC(=O)c1cccc(O)c1O (centres undefined) ? 66

Then this compound:
Any idea what AG80 was measured for Cc1cc(C(C#N)c2ccc(Cl)cc2)c(Cl)cc1NC(=O)c1cc(I)cc(I)c1O (centres undefined) ? 100
